# Experimental system: HCV E1E2 antigen, isolate UKN4.21.16 (hepatitis C virus, isolate UKN4.21.16)
# Assay procedure: ELISA, Fab on E1E2 antigen
// not satisfied strictly below 0.9 OD 450 nm in OD 450 nm; satisfied otherwise

## Task Dear colleague, could you confirm whether Fab N2 (Fab, V domains shown) VH: VQLLEQSGPEVKKPGDSLRISCKMSGDSLVTTWIGWVRQKPGQGLEWMGIINPGDSSTNIYPGDSATRYGPSFQGQVTISIDKSTSTAYLQWNTVKPSDTGIYYCARHVPVPISGTFLWREREMHDFGYFDDWGQGTLVIVSS VL: ELTQSPGTLSLFPGERATLSCRASQSILGRYLAWYQQKGGRAPRLLIFGASKRATGIPDRFSGSGSGTDFTLTIGRLEPEDFAVYYCQHYGSSITFGQGTRLDIKR has OD 450 nm at or above 0.9 OD 450 nm?
## Result satisfied

## Task Dear colleague, could you confirm whether Fab V1 (Fab, V domains shown) VH: VQLLEQSGAEVQKPGASVKVSCKPSGYIFTNFGISWVRQAPGQGLEWMAWINTYNGKTTYAQSLQGRVTLTTDPYTNTVFMELRSLRSDDTAVYYCARENEGEYVWGHFRSDYWGQGTLVTVSS VL: ELTQSPSSLSASVGDRVTITCQASQDISNFLNWYQRRPGKAPNLLIYDATHLETGVPSRFSGSGFGTHFTLTINSLQPEDIGTYYCQHFDDVPSFTFGPGTKVDLKR has OD 450 nm at or above 0.9 OD 450 nm?
## Result satisfied

## Task Dear colleague, could you confirm whether Fab P1 (Fab, V domains shown) VH: EVQLLESGGGVVQPGGSLRLSCAASGFTFTSFTMHWVRQAPGKGLEWVALISHDGSNKDYADSVRGRFTVSRDNSKKMVYLQMSSLRPDDAAVYYCARGGPAYYTYSDTLTGYHNVVGDYWGQGTLVTVSS VL: ELTQSPGTLSLSPGERATLSCRASQVRGFLAWFQQKPGQAPRLLIYGASNRAPGIPDRFSGSGSGTDFTLTISRLEPEDFAVYYCQQYGDSPPITFGQGTRLEIKR has OD 450 nm at or above 0.9 OD 450 nm?
## Result not satisfied

## Task Dear colleague, could you confirm whether Fab N1 (Fab, V domains shown) VH: VQLLEQSGPEVKKPGDSLRISCKMSGDSLVTTWIGWVRQKPGQGLEWMGIINPGDSSTNIYPGDSATRYGPSFQGQVTISIDKSTSTAYLQWNAVKPSDTGIYYCARHVPVPISGTFLWREREMHDFGYFDDWGQGTLVIVSS VL: ELTQSPGTLSLSPGERATLSCRASQSVSSSYLAWYQQKPGQAPRLLIYGASNRAAGIPDRFSGSGSGADFTLTISRLEPEDFAVYYCQQYGSSLITFGQGTRLEIKR has OD 450 nm at or above 0.9 OD 450 nm?
## Result satisfied

## Task Dear colleague, could you confirm whether Fab P6 (Fab, V domains shown) VH: EVQLLESGGGVVQPGKSLTVSCAASGFTFSTFTMHWVRQAPGKWLEWVAVISHDGGTEHYADSVTGRFTISRDNSKNTLHMQMNSLRLEDTAVYFCARGGPAYYLYNDVLTGYYNVVGDFWGQGTLVTVSS VL: ELIQSPGTLFLSSGERATLSCRASQSVSSSNLAWFQHKSGRAPRLLIYGASNRAPDIPDRFSGSGSGTDFTISISRLEPEDFAVYYCQRYGDSPPITFGQGTRLEIKR has OD 450 nm at or above 0.9 OD 450 nm?
## Result not satisfied
